From: ChEMBL document CHEMBL4340508

Target: Acetylcholinesterase (Homo sapiens)
Test: Inhibition of human erythrocyte AChE at 10 uM using acetylthiocholine chloride as substrate preincubated for 15 mins followed by substrate addition and measured at 1 min time interval by Ellman's method relative to control
# if value of inhibition reaches 6%, tag label 1; if it stays below, tag label 0

// inclusive: inhibition at least 6%? input: "Clc1ccc2nc(-c3cccc(N4CCc5ccccc5C4)c3)[nH]c2c1"
label 0

// inclusive: inhibition at least 6%? input: "Nc1cccc2nc(-c3cccc(N4CCc5ccccc5C4)c3)[nH]c12"
label 0

// inclusive: inhibition at least 6%? input: "Cc1ccc2nc(-c3cccc(N4CCc5ccccc5C4)c3)[nH]c2c1"
label 0

// inclusive: inhibition at least 6%? input: "CC(C)(C)c1ccc2nc(-c3cccc(N4CCc5ccccc5C4)n3)[nH]c2c1"
label 1

// inclusive: inhibition at least 6%? input: "Fc1cc2nc(-c3cccc(N4CCc5ccccc5C4)n3)[nH]c2cc1F"
label 1

// inclusive: inhibition at least 6%? input: "Fc1cc2[nH]c(-c3cccc(N4CCc5ccccc5C4)c3)nc2cc1Cl"
label 1

// inclusive: inhibition at least 6%? input: "Clc1ccc2nc(-c3cccc(N4CCc5ccccc5C4)n3)[nH]c2c1"
label 1

// inclusive: inhibition at least 6%? input: "c1cc(-c2nc3ccccc3[nH]2)nc(N2CCc3ccccc3C2)c1"
label 1

// inclusive: inhibition at least 6%? input: "Oc1ccc2nc(-c3cccc(N4CCc5ccccc5C4)n3)[nH]c2c1"
label 1

---

Molecular target: UniProt:P22303
Sequence (P22303 whole entry): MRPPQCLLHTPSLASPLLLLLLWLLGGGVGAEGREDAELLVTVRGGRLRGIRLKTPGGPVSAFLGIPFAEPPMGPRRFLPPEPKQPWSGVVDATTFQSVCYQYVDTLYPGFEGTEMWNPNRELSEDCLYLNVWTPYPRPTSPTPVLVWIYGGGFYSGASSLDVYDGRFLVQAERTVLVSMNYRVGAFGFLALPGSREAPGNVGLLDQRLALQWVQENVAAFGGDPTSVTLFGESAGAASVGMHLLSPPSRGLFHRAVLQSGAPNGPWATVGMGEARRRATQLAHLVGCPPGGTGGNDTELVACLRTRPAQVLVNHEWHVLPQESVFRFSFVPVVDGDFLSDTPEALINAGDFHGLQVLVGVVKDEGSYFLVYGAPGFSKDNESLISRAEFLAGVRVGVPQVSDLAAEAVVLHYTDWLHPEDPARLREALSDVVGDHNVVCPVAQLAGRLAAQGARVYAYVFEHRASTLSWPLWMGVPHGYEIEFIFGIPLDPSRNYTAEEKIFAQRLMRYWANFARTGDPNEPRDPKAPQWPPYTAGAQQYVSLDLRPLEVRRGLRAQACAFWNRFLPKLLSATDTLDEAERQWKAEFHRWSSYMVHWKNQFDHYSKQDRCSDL
Test: Inhibition of human erythrocyte AChE at 10 uM using acetylthiocholine chloride as substrate preincubated for 15 mins followed by substrate addition and measured at 1 min time interval by Ellman's method relative to control
# if value of inhibition reaches 10%, tag rule met; if it stays below, tag rule not met

// inclusive: inhibition at least 10%? input: "COc1ccc2nc(-c3cccc(N4CCc5ccccc5C4)n3)[nH]c2c1"
rule not met

// inclusive: inhibition at least 10%? input: "Fc1ccc2nc(-c3cccc(N4CCc5ccccc5C4)c3)[nH]c2c1"
rule not met

// inclusive: inhibition at least 10%? input: "FC(F)(F)c1ccc2nc(-c3cccc(N4CCc5ccccc5C4)c3)[nH]c2c1"
rule met

// inclusive: inhibition at least 10%? input: "Oc1ccc2nc(-c3cccc(N4CCc5ccccc5C4)c3)[nH]c2c1"
rule met

// inclusive: inhibition at least 10%? input: "COc1ccc2nc(-c3cccc(N4CCc5ccccc5C4)c3)[nH]c2c1"
rule met

// inclusive: inhibition at least 10%? input: "Fc1ccc2c(c1)CCN(c1cccc(-c3nc4ccc(F)cc4[nH]3)n1)C2"
rule met

// inclusive: inhibition at least 10%? input: "Clc1cc2nc(-c3cccc(N4CCc5ccccc5C4)c3)[nH]c2cc1Cl"
rule met

// inclusive: inhibition at least 10%? input: "Fc1ccc2nc(-c3cccc(N4CCc5ccccc5C4)n3)[nH]c2c1"
rule not met

// inclusive: inhibition at least 10%? input: "FC(F)(F)c1ccc2nc(-c3cccc(N4CCc5ccccc5C4)n3)[nH]c2c1"
rule met

// inclusive: inhibition at least 10%? input: "COc1ccc2c(c1)CCN(c1cccc(-c3nc4ccc(OC)cc4[nH]3)n1)C2"
rule not met

// inclusive: inhibition at least 10%? input: "c1cc(-c2nc3ccccc3[nH]2)cc(N2CCc3ccccc3C2)c1"
rule not met

// inclusive: inhibition at least 10%? input: "FC(F)(F)Oc1ccc2nc(-c3cccc(N4CCc5ccccc5C4)n3)[nH]c2c1"
rule not met
